Reference source for all entries: ChEMBL document CHEMBL1135731

- system-under-test: Neuronal acetylcholine receptor; alpha4/beta2 (Rattus norvegicus, UniProt P09483+P12390)
- Sequence (P09483 whole entry): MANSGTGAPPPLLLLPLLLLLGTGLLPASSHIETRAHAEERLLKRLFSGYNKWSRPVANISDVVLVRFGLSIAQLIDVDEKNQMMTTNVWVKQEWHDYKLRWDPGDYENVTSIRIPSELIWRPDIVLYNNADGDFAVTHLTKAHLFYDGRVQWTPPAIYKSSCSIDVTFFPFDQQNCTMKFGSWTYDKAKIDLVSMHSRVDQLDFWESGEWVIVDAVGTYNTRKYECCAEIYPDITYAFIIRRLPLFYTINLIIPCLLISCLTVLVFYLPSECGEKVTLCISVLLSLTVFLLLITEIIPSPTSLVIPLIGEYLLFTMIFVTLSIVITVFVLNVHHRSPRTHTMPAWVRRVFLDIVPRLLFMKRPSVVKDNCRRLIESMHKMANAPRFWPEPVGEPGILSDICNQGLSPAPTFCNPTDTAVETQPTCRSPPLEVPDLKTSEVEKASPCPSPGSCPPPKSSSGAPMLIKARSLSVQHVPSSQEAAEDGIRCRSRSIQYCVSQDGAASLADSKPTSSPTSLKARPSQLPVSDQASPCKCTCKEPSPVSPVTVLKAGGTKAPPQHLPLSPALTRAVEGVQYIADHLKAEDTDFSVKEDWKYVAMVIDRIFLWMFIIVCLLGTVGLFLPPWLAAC
- Sequence (P12390 whole entry): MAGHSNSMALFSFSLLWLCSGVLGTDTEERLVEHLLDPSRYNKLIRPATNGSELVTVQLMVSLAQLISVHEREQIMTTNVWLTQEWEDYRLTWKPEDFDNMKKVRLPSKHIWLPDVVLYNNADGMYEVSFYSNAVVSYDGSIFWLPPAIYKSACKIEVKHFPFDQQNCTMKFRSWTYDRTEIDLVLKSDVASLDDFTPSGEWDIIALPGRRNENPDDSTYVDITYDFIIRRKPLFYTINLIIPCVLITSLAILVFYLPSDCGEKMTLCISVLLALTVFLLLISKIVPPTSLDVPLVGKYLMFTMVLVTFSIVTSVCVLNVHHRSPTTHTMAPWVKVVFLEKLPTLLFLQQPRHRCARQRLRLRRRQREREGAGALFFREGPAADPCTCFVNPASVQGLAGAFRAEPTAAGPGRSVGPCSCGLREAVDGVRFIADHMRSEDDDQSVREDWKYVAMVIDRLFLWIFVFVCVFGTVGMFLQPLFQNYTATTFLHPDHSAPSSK
- assay-method-text: Binding affinity to Nicotinic acetylcholine receptor alpha4-beta2 using +/-[3H]epibatidine as radioligand in rat brain
endpoint-name: Ki
Could you write the number and then its unit?

Here is how some compounds turned out for Ki.
Query: What value of Ki has been reported for the following compound? `C1=C(c2cnccn2)C2CC[C@H](CC1)N2`
Reply: 12 nM

Query: For the compound `C1=C(c2ccnnc2)C2CC[C@H](CC1)N2` , what Ki is on record?
Reply: 19 nM

Query: Which Ki value is on record for `C1=C(c2cncnc2)C2CC[C@H](CC1)N2` ?
Reply: 0.14 nM

Now look at this entry.
Query: Record request: Ki value, item `C1=C(c2cccnc2)C2CC[C@H](CC1)N2`
Reply: 0.051 nM

* * *

- system-under-test: Neuronal acetylcholine receptor subunit alpha-7 (Rattus norvegicus)
- Sequence (Q05941 whole entry): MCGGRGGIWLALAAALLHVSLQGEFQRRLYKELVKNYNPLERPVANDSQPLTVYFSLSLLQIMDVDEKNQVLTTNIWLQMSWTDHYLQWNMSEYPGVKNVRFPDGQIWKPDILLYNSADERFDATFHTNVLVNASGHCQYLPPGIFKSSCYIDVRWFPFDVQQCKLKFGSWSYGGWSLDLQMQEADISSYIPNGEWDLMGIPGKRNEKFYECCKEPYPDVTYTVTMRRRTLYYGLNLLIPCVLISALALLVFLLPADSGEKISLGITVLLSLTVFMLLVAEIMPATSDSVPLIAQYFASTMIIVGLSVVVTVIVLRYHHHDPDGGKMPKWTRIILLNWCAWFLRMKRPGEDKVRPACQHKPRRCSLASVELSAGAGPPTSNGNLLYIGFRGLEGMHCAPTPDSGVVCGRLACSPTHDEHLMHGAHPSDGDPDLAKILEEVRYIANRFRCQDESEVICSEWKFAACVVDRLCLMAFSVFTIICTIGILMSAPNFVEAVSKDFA
- assay-method-text: Binding affinity to subtype Nicotinic acetylcholine receptor alpha7 using [3H]-MLA as radioligand in rat brain
endpoint-name: pKi
The scale used: pKi is minus the common logarithm of the concentration in molar units.

Query: What pKi value was documented for this molecule, `C1=C(c2cncnc2)C2CC[C@H](CC1)N2` ?
Reply: 7.97

Query: Looking for the measured pKi of `C1=C(c2cnccn2)C2CC[C@H](CC1)N2` , can you help?
Reply: 6.60

Query: Sample `C1=C(c2cccnc2)C2CC[C@H](CC1)N2` — what was its pKi?
Reply: 9.02

Query: State the recorded pKi for this entry: `Clc1ccc(C2=CCC[C@H]3CCC2N3)cn1`
Reply: 7.92
